# Tested on: GABA transporter 3 (Mus musculus)
# measurement_protocol: Inhibition of mouse GAT3 expressed in HEK293 cells assessed as remaining [3H]GABA uptake at 100 uM preincubated for 25 mins followed by [3H]GABA addition and measured after 4 mins by liquid scintillation counting method
value_kind: Activity (%)
Numbers only, in %.

Some compounds with recorded Activity:
- compound: "COc1ccc(C(C/C=C/CN2CCCC(C(=O)O)C2)c2ccc(OC)cc2)cc1 (racemic)"
  Activity, %: 71
- compound: "COc1ccc(C(O)(/C=C/CN2CCCC(C(=O)O)C2)c2ccc(OC)cc2)cc1 (racemic)"
  Activity, %: 66
- compound: "O=C(O)C1CCCN(C/C=C/C(c2ccccc2)(c2ccccc2)c2ccccc2)C1 (racemic)"
  Activity, %: 103

Okay, next one:
Task: Given the entry COc1ccc(C(/C=C/CN2CCCC(C(=O)O)C2)(c2ccc(OC)cc2)c2nccs2)cc1 (racemic) , report its measured Activity.
Output: 82

* * *

# system_name: Sodium- and chloride-dependent GABA transporter 1 (Mus musculus)
# measurement_protocol: Inhibition of mouse GAT1 expressed in HEK293 cells assessed as reduction in [3H]GABA uptake preincubated for 25 mins followed by [3H]GABA addition and measured after 4 mins by liquid scintillation counting method
# Assay type: cell-based
value_kind: pIC50
One number for each entry, as −log10 of the molar value.

- molecule: "O=C(O)C1CCCN(C/C=C/CC(c2ccccc2)c2ccccc2)C1 (racemic)"
  endpoint_value: 6.78
- molecule: "COc1ccc(C(C/C=C/CN2CCCC(C(=O)O)C2)c2ccc(OC)cc2)cc1 (racemic)"
  endpoint_value: 4.87
- molecule: "COc1ccc(C(/C=C/CN2CCC[C@H](C(=O)O)C2)(c2ccc(OC)cc2)c2ccc3sccc3c2)cc1"
  endpoint_value: 4.85

Count: 2. Required value per item: pIC50.
1. O=C(O)C1CCCN(C/C=C/C(c2ccc3c(c2)OCO3)(c2ccc3c(c2)OCO3)c2ccc3c(c2)OCO3)C1 (racemic)
2. COc1ccc(C(O)(/C=C/CN2CCCC(C(=O)O)C2)c2ccc(OC)cc2)cc1 (racemic)

Output:
1. 4.75
2. 4.15

Take each entry in turn and give its pIC50.
1. COc1ccc(C(/C=C/CN2CCCC(C(=O)O)C2)(c2ccc(OC)cc2)c2ccc3c(c2)OCO3)cc1 (racemic)
2. COc1ccc(C(C/C=C/CN2CCCC(C(=O)O)C2)(c2ccc(OC)cc2)c2ccc(OC)cc2)cc1 (racemic)
3. COc1ccc(CC(/C=C/CN2CCCC(C(=O)O)C2)(c2ccc(OC)cc2)c2ccc(OC)cc2)cc1 (racemic)
4. Cc1ccc(C(/C=C/CN2CCCC(C(=O)O)C2)(c2ccc(C)cc2)c2ccc(C)cc2)cc1 (racemic)
5. COc1ccc(C(/C=C/CN2CCCC(C(=O)O)C2)(Cc2ccccc2)c2ccc(OC)cc2)cc1 (racemic)
6. COc1ccc(C(/C=C/CN2CCCC(C(=O)O)C2)(c2ccc(OC)cc2)c2ccsc2)cc1 (racemic)
7. COc1ccc(C(/C=C/CN2CCCC(C(=O)O)C2)c2ccc(OC)cc2)cc1 (racemic)

Output:
[4.55, 4.26, 4.95, 4.69, 4.80, 4.41, 4.85]

* * *

# system_name: Sodium- and chloride-dependent GABA transporter 1 (Mus musculus)
# measurement_protocol: Inhibition of mouse GAT1 expressed in HEK293 cells assessed as reduction in [3H]GABA uptake preincubated for 25 mins followed by [3H]GABA addition and measured after 4 mins by liquid scintillation counting method
value_kind: pIC50
Give bare numbers, as −log10 of the molar value.

Examples with answers:
- compound: "COc1ccc(C(/C=C/CN2CCCC(C(=O)O)C2)(c2ccc(OC)cc2)c2ccc3sccc3c2)cc1 (racemic)"
  pIC50: 4.99
- compound: "O=C(O)C1CCCN(C/C=C/CC(c2ccccc2)(c2ccccc2)c2ccccc2)C1 (racemic)"
  pIC50: 4.67
- compound: "O=C(O)C1CCCN(C/C=C/C(c2ccc3occc3c2)(c2ccc3occc3c2)c2ccc3occc3c2)C1 (racemic)"
  pIC50: 5.39

Let us examine a further case.
Task: GET /values?readout=pIC50&item= O=C(O)C1CCCN(C/C=C/C(c2ccccc2)(c2ccccc2)c2ccccc2)C1 (racemic)
Output: 4.39
